In this section, each of the compounds is paired with its reported IC50 at 48 h.
# test description: Cytotoxicity against human MCF-10A cells assessed as inhibition of cell proliferation incubated for 48 hrs by MTT assay
# Assay type: toxicity, cell-based
Write it as a number; the unit µM goes unstated.

[
  {
    "smiles code": "CC1(C)CC[C@]2(C(=O)OCCOC(=O)c3ccc(OCc4ccc(B5OC(C)(C)C(C)(C)O5)cc4)cc3)CC[C@]3(C)[C@H](C(=O)C=C4[C@@]5(C)C=C(C#N)C(=O)C(C)(C)[C@@H]5CC[C@]43C)[C@@H]2C1",
    "IC50 at 48 h / µM": 4
  },
  {
    "smiles code": "CC1(C)CC[C@]2(C(=O)OCCCCCOC(=O)c3ccc(OCc4ccc(B5OC(C)(C)C(C)(C)O5)cc4)cc3)CC[C@]3(C)[C@H](C(=O)C=C4[C@@]5(C)C=C(C#N)C(=O)C(C)(C)[C@@H]5CC[C@]43C)[C@@H]2C1",
    "IC50 at 48 h / µM": 3.1
  },
  {
    "smiles code": "COc1cc(/C=C/CC(=O)OCCCOC(=O)[C@]23CCC(C)(C)C[C@H]2[C@H]2C(=O)C=C4[C@@]5(C)C=C(C#N)C(=O)C(C)(C)[C@@H]5CC[C@@]4(C)[C@]2(C)CC3)ccc1OCc1ccc(B2OC(C)(C)C(C)(C)O2)cc1",
    "IC50 at 48 h / µM": 2.4
  }
]

# context switch: different compound, same IC50 at 48 h
IC50 at 48 h for CC1(C)CC[C@]2(C(=O)OCCCOC(=O)C/C=C/c3ccc(OCc4ccc(B5OC(C)(C)C(C)(C)O5)cc4)cc3)CC[C@]3(C)[C@H](C(=O)C=C4[C@@]5(C)C=C(C#N)C(=O)C(C)(C)[C@@H]5CC[C@]43C)[C@@H]2C1 is 18.3

###

# Test system: BGC-823
# test description: Antiproliferative activity against human BGC-823 cells assessed as inhibition of cell proliferation incubated for 48 hrs by MTT assay
# Assay type: functional, cell-based
# test conditions: BGC-823, 48 h
property label: pIC50
In simple prose, pIC50 is minus the logarithm base ten of a concentration in moles per litre.

[
  {
    "smiles code": "CC1(C)CC[C@]2(C(=O)OCCCCCOc3ccc(NC(=O)OCc4ccc(B5OC(C)(C)C(C)(C)O5)cc4)cc3)CC[C@]3(C)[C@H](C(=O)C=C4[C@@]5(C)C=C(C#N)C(=O)C(C)(C)[C@@H]5CC[C@]43C)[C@@H]2C1",
    "obs value": 5.85
  },
  {
    "smiles code": "COC(=O)[C@]12CCC(C)(C)C[C@H]1[C@H]1C(=O)C=C3[C@@]4(C)C=C(C#N)C(=O)C(C)(C)[C@@H]4CC[C@@]3(C)[C@]1(C)CC2",
    "obs value": 6.30
  },
  {
    "smiles code": "CC1(C)CC[C@]2(C(=O)OCCCOc3ccc(NC(=O)OCc4ccc(B5OC(C)(C)C(C)(C)O5)cc4)cc3)CC[C@]3(C)[C@H](C(=O)C=C4[C@@]5(C)C=C(C#N)C(=O)C(C)(C)[C@@H]5CC[C@]43C)[C@@H]2C1",
    "obs value": 5.92
  },
  {
    "smiles code": "COc1cc(C(=O)OCCCCOC(=O)[C@]23CCC(C)(C)C[C@H]2[C@H]2C(=O)C=C4[C@@]5(C)C=C(C#N)C(=O)C(C)(C)[C@@H]5CC[C@@]4(C)[C@]2(C)CC3)ccc1OCc1ccc(B2OC(C)(C)C(C)(C)O2)cc1",
    "obs value": 5.08
  }
]

Sample CC1(C)CC[C@]2(C(=O)OCCCCCCOC(=O)c3ccc(OCc4ccc(B5OC(C)(C)C(C)(C)O5)cc4)cc3)CC[C@]3(C)[C@H](C(=O)C=C4[C@@]5(C)C=C(C#N)C(=O)C(C)(C)[C@@H]5CC[C@]43C)[C@@H]2C1 ; pIC50 observed: 5.49
